target: UniProtKB P51532; test: ATPase catalytic activity assay (ADP-Glo), BRG-1
Sequence (P51532 whole entry): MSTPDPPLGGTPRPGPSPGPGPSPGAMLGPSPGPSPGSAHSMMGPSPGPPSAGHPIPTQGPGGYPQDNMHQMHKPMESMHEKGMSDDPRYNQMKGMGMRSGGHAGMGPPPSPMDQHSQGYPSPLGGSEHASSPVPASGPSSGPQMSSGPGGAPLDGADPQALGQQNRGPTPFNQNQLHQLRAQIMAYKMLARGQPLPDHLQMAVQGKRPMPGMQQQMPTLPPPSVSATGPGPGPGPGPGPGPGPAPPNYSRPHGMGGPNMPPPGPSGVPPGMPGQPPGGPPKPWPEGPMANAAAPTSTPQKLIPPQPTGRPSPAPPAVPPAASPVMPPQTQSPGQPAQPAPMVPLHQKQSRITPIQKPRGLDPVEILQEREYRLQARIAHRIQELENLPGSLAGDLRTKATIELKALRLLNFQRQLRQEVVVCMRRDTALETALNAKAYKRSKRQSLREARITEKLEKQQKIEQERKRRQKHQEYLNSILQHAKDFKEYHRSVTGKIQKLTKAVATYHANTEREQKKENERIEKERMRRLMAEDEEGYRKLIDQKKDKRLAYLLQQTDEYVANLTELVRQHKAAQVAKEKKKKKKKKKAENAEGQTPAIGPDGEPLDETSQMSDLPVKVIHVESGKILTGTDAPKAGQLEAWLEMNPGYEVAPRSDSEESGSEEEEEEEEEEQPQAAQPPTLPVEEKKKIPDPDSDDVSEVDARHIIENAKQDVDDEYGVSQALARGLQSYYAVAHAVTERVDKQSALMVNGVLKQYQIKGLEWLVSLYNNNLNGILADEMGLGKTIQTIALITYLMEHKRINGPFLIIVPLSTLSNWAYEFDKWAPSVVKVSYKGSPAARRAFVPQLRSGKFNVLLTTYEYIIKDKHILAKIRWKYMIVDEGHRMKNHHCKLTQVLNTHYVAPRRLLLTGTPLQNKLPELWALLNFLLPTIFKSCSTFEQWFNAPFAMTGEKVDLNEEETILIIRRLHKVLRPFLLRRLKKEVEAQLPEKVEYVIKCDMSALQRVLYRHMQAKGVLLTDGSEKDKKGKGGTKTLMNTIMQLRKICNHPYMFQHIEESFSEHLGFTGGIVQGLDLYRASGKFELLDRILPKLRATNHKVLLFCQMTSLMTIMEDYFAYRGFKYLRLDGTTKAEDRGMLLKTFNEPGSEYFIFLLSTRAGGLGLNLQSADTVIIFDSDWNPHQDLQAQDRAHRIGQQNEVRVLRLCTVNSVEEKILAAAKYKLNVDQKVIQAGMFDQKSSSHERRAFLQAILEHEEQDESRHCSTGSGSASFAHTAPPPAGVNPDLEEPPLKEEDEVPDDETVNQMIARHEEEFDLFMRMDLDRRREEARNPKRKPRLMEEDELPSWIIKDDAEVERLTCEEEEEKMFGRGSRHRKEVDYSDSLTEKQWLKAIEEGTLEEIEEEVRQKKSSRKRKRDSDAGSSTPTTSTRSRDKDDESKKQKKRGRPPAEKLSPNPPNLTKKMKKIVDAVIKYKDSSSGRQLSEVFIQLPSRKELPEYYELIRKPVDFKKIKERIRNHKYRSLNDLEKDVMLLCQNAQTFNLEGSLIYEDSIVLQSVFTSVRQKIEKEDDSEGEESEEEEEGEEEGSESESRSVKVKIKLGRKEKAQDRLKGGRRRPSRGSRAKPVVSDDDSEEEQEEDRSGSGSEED
// values below are reported IC50

C[C@@]1(CO)CCc2ccc(C(=O)NCc3cc4nc(-c5ccccc5)ccc4cn3)cc21	> 1000 nM
C[C@@]1(C#N)COCc2ccc(C(=O)NCc3cc4cc(-c5ccccc5)ncc4cn3)cc21	> 1000 nM
COc1ncccc1-c1nc2cc(CNC(=O)c3ccc4c(c3)[C@](C)(C#N)COC4)ncc2s1	> 1000 nM
C[C@@]1(C#N)COCc2ccc(C(=O)NCc3cc4cc(-c5ccnc(C6CC6)c5F)cnc4cn3)cc21	100 to 500 nM

Consider now this further compound.
Query string: Which IC50 is reported for this compound? C[C@@]1(C#N)COCc2ccc(C(=O)NCc3cc4c(cn3)CCN(c3cncc(N5CCOCC5)n3)C4)cc21
Result string: 100 to 500 nM

* * *

molecular target: BRM (Homo sapiens); assay: ATPase catalytic activity assay (ADP-Glo), BRM; details: 30 nM BRM, 400 μM ATP
Sequence (P51531 whole entry): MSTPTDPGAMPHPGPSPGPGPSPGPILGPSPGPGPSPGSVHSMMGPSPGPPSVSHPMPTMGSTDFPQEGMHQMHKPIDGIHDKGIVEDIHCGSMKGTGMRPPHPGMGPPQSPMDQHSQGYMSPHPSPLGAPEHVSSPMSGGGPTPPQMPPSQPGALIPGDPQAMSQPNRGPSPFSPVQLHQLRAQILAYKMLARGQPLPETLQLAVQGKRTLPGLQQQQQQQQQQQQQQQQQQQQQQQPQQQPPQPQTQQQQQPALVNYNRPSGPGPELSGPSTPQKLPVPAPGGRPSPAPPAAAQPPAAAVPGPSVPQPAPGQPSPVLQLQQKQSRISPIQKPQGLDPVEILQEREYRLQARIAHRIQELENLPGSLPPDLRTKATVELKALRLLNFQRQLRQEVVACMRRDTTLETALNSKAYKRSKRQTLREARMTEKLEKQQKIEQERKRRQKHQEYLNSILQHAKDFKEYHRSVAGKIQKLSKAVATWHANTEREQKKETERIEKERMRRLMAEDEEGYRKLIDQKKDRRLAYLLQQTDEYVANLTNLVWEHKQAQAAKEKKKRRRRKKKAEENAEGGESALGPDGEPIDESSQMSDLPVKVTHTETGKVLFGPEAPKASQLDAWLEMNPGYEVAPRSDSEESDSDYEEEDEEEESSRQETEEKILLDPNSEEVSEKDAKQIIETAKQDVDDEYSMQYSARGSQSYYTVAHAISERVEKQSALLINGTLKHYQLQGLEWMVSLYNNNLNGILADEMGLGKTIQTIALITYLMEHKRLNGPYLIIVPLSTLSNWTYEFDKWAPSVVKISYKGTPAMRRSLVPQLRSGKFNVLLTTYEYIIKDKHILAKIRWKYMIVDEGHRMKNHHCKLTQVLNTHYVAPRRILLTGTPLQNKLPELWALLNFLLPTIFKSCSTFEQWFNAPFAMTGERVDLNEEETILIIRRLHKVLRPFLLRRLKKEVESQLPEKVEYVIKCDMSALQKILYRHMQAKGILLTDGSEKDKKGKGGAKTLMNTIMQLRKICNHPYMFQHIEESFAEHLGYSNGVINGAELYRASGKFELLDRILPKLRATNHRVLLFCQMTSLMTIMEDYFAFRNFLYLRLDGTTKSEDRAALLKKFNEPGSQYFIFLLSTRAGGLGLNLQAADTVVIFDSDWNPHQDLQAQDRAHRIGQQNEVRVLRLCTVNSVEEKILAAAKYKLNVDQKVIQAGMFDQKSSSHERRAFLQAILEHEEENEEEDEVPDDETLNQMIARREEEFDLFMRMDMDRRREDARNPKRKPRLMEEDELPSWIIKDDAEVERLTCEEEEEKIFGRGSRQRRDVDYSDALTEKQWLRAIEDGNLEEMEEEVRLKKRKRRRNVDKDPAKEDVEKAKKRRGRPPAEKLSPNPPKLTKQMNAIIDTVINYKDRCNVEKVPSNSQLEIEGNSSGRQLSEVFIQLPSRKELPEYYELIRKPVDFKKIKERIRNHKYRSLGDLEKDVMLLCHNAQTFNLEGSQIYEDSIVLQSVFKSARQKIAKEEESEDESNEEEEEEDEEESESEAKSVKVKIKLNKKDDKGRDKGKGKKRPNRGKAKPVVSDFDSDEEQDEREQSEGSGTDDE
MEASURED_PROPERTY: BRM Max % Inhibition (%)
Just the number please, in %, no unit attached.

Observe how each entry below is paired with its result.
C[C@@]1(C#N)COCc2ccc(C(=O)NCc3cc4c(nn3)CCN(c3cccc(N5CCC5)n3)C4)cc21	96
[2H]C1([2H])OC([2H])([2H])[C@@](C)(F)c2cc(C(=O)NCc3cc4nc(-c5cncc(C6CC6)n5)ccc4cn3)cnc21	98
C[C@@]1(C#N)COCc2ccc(C(=O)NCc3cc4c(cn3)CCN(c3cccc(N5CCC5)n3)C4)cc21	96
C[C@@]1(C#N)COCc2ccc(C(=O)NCc3cc4c(cn3)CCN(c3ccnc(N5CCCC5)n3)C4)cc21	97
COc1cnn(C)c1-c1ccc2cnc(CNC(=O)c3ccc4c(c3)[C@](C)(C#N)COC4)cc2n1	96
C[C@]1(F)CCCc2ncc(C(=O)NCc3cc4nc(-c5cncc(C6CC6)n5)ccc4cn3)cc21	87
C[C@@]1(C#N)COCc2ccc(C(=O)NCc3cc4nc(N5CCN(C6CC6)C5=O)ccc4cn3)cc21	83
C[C@@]1(C#N)COCc2ccc(C(=O)NCc3cc4nc(-c5cnn(-c6cccnc6)c5)ccc4cn3)cc21	85

Query string: Missing value: BRM Max % Inhibition, BRM (Homo sapiens), entry C[C@@]1(C#N)COCc2ccc(C(=O)NCc3cc4nc(-c5cnn6ccccc56)ccc4cn3)cc21 . Fill in?
Result string: 96

Query string: Missing value: BRM Max % Inhibition, BRM (Homo sapiens), entry C[C@@]1(C#N)COCc2ccc(C(=O)NCc3cc(N4CCC[C@H](c5ccccc5)C4)ccn3)cc21 . Fill in?
Result string: 82

Query string: Missing value: BRM Max % Inhibition, BRM (Homo sapiens), entry C[C@@]1(C#N)COCc2ccc(C(=O)NCc3cc([C@H]4C[C@@H](c5cccc(C6CC6)n5)C4)ccn3)cc21 . Fill in?
Result string: 96

Query string: Missing value: BRM Max % Inhibition, BRM (Homo sapiens), entry CC(F)(F)c1cncc(-c2ccc3cnc(CNC(=O)c4ccc5c(c4)[C@](C)(C#N)COC5)cc3n2)n1 . Fill in?
Result string: 99

Query string: Missing value: BRM Max % Inhibition, BRM (Homo sapiens), entry COc1cc(F)ccc1-c1ccc2cnc(CNC(=O)c3ccc4c(c3)[C@](C)(C#N)COC4)cc2n1 . Fill in?
Result string: 98

Query string: Missing value: BRM Max % Inhibition, BRM (Homo sapiens), entry COC(=O)N1CCC=C(c2ccc3cnc(CNC(=O)c4ccc5c(c4)[C@](C)(F)COC5)cc3n2)C1 . Fill in?
Result string: 81
